Test system: human red blood cells (hRBC's)
Test: Hemolysis assay
Type: cell-based
Details: red cells of human

[
  {
    "Test smiles": "CC(C)C[C@@H](CN(CC(=O)N[C@@H](CCCCN)CN(CC(N)=O)C(=O)CCc1ccccc1)C(=O)CCc1ccccc1)NC(=O)CN(C[C@H](CCCCN)NC(=O)CN(C[C@H](CCCCN)NC(=O)CN(C[C@H](CC(C)C)NC(=O)CN(C[C@H](CCCCN)NC(=O)CN(C[C@@H](N)CCCCN)C(=O)CCc1ccccc1)C(=O)CCc1ccccc1)C(=O)CCc1ccccc1)C(=O)CCc1ccccc1)C(=O)CCc1ccccc1",
    "Target or test system": "human red blood cells (hRBC's)",
    "Hemolysis HC10": "75 µg/mL"
  },
  {
    "Test smiles": "CCCCCCCCCCCC(=O)N[C@@H](CCCCN)CN(CC(N)=O)C(=O)CCCN",
    "Target or test system": "human red blood cells (hRBC's)",
    "Hemolysis HC10": "400 µg/mL"
  },
  {
    "Test smiles": "CCCCCCCC/C=C\\CCCCCCCC(=O)N[C@@H](CCCCN)CN(CC(N)=O)C(=O)CCCN",
    "Target or test system": "human red blood cells (hRBC's)",
    "Hemolysis HC10": "40 µg/mL"
  }
]
